The measured values listed here are drawn from paper PMC7895462.

# Test system: MES-induced seizures
# measurement.description: Maximal electroshock
# Assay type: in vivo
# measurement.context: i.p.

smiles.code	Rat I.P. identification MES
CCCC(CCC)C(=O)O	−
CCOC(=O)Nc1ccc(NCc2ccc(F)cc2)cc1N	+
OC[C@H]1O[C@@H](n2cnc3c(NC4CCCC4)ncnc32)[C@H](O)[C@@H]1O	+
Clc1cccc(N2CCNCC2)c1	+

====

# System: MES-induced seizures
# measurement.description: Maximal electroshock
# Format: in vivo
# measurement.context: i.p.; 0.5 and 2 h; default doses 30, 100, 300 mg/kg
measure: Mouse I.P identification MES

compound	tested.system	measure	reported.result
Cc1ccsc1C(=CCCN1CCC[C@@H](C(=O)O)C1)c1sccc1C	MES-induced seizures	Mouse I.P identification MES	−
CCOC(=O)Nc1ccc(NCc2ccc(F)cc2)cc1N	MES-induced seizures	Mouse I.P identification MES	+
NC(=O)N1c2ccccc2C=Cc2ccccc21 [Carbamazepine, carbamazepine]	MES-induced seizures	Mouse I.P identification MES	+
CN1C(=O)CC(=O)N(c2ccccc2)c2cc(Cl)ccc21	MES-induced seizures	Mouse I.P identification MES	+
